System: ADR-RES
Assay: Cytotoxicity assay (cell titer-glo and calcein AM), ADR-RES
Details: read-out: Cytotoxicity IC50, NCI/ADR RES, calcein; NCI/ADR RES; calcein AM readout; % error in parentheses
READOUT_TYPE: IC50 (µM)
Your answer is read as µM, so omit the unit and give the number.

# MOLECULE, OBS_VALUE
data = [
    ("COc1cc2c(c(OC)c1OC)-c1ccc(OC)c(=O)cc1C(NC(=O)CN(OC)C1OCC(O)C(O)C1O)CC2 [Col20, D-arabinoside]", 7.74),
]

Field: next molecule
Query: May I ask what IC50 has been recorded for COc1cc2c(c(OC)c1OC)-c1ccc(OC)c(=O)cc1C(NC(=O)CN(OC)C1OCC(O)C(O)C1O)CC2 [Col25, L-arabinoside] ?
Reply: 5.53
